- Tested on: Kappas-299 (NPM-ALK)
- Assay Comment: Cell growth inhibition assay (WST-8), Kappas-299
- Format: cell-based
- Assay Conditions: read-out: Kappas-299 (nM) (NPM-ALK), 50% of cell growth inhibition (IC50), Kappas-299 cells, WST-8, versus DMSO control
Please note: IC50 exactly at 70 nM is -1. Only values below 70 nM get 1.

COc1cc2c(=O)c3c4ccc(C#N)cc4[nH]c3n(C(C)C)c2c(F)c1C1=C[C@@H](C)N[C@@H](C)C1
1
COc1cc2c(=O)c3c4ccc(C#N)cc4[nH]c3n(C(C)C)c2c(F)c1C1=CC(C)(C)N(C)C(C)(C)C1
1
COc1cc2c(=O)c3c4ccc(C#N)cc4[nH]c3n(C(C)C)c2c(F)c1C1=CCN(C)CC1
1
COc1cc2c(=O)c3c4ccc(C#N)cc4[nH]c3n(C(C)C)c2c(F)c1C1=CCN(C2CCOCC2)CC1
1

Say whether its IC50 is strictly beneath 70 nM. Entry: `COc1cc2c(=O)c3c4ccc(C#N)cc4[nH]c3n(C(C)C)c2c(F)c1C1=CCNCC1`
-1

Say whether its IC50 is strictly beneath 70 nM. Entry: `CCN1[C@H](C)CN(c2c(OC)cc3c(=O)c4c5ccc(C#N)cc5[nH]c4n(C(C)C)c3c2F)C[C@@H]1C`
-1

Say whether its IC50 is strictly beneath 70 nM. Entry: `COc1cc2c(=O)c3c4ccc(C#N)cc4[nH]c3n(C(C)C)c2c(F)c1C1=C[C@@H](C)N(C)[C@@H](C)C1`
1

# credit: patent US10781208B2
